assay: Single ascending dose study in pre- and post-menopausal women, pharmacokinetics; type: in vivo, human; conditions: female, human, in vivo, half life
quantity measured: half-life

N#Cc1ccc(C(F)(c2ccc(C#N)cc2)n2cncn2)cc1 ~25 days

----------
experiment: Single ascending dose study in pre- and post-menopausal women, pharmacokinetics; assay type: in vivo, human; conditions: female, human, in vivo, 0.3 mg
quantity measured: Tmax (h)

N#Cc1ccc(C(F)(c2ccc(C#N)cc2)n2cncn2)cc1 1

----------
assay: Single ascending dose study in pre- and post-menopausal women, pharmacokinetics; format: in vivo, human; details: female, human, in vivo, po, half-life
quantity measured: half-life

N#Cc1ccc(C(F)(c2ccc(C#N)cc2)n2cncn2)cc1 23 to 27 days

Data credit: patent US9750724B2
